- System: K4 kissing-loop RNA reporter
- experiment.description: apparent KD of K4 kissing-loop reporter; higher = weaker reporter binding
- protocol.conditions: Eterna round: R107; input ligand: none
assay.endpoint: apparent KD of K4 kissing-loop reporter (nM)
Report the figure in nM without appending any unit label.

Req: Which value of apparent KD of K4 kissing-loop reporter has been reported for ACCGCAUUGGGCUGAUCCCAAUGCGCUGGUCGAGGACCGGUACGGCCGCCACUCGUCCAGUGAUGUUGGACUAGGGCAACUGAAG [Veraceer] in the records?
Resp: 249

Req: Ok, now CUUGGAAGGACGGCCGCCACUGGGCAGUGAUGUUGCCCGAGUUGGUAACGCAGUGAUGUUGCGUCCAGGACCGGGUCCUAGGAAU [Exclusion Tryptophan B GF 25]
Resp: 112

Req: Ok, now AGACUUCACCGAAGGAGCGACGUGGCCUAGUGAUGUUAGGCACGAGAGAAAUCUCGUAUACGUCAGGUAGGUCGCGGUGAAGUCA [Omei KL Arginine B SS C v6]
Resp: 165

Req: Ok, now AAUAAUUUCAGAGGAUAUGCUUUAUUAUGAUUUUUAAAUAAUAAAUGCAGUGAUGUUGCUUAUUAUGCAGAAGGCUGAUUUAUAA [JR_SSFMNB_Sub015]
Resp: 747

Req: Ok, now GGCUCCUACGCAGGAUAUAGUAGCCGAGAGUGAUGUUCUACGGCGUUUGCCGAUUUAGUCACAGAUCUAGAAGGGUGUAGGAGCC [XFMN-B PiClone]
Resp: 1130

Req: Ok, now GUAGCACUUGACAGUGAUGUUGUCAAGGGCAAGGAUAUCACCUCAGUGAGAAGGUGUCCUUGAUAACUGCUACGGGAAUAUCCCA [Omei KL FMN A Exc D v7]
Resp: 152

Req: Ok, now GGGAGUAGUGCGGCCGCCACUGUGAAAGAAGAAGAAUAUAGUGAUGUUAUAUAGGAAAGGAAGAAUAGGACCGGGCAUUAGAUUU [SSTRyptB.K]
Resp: 260

Req: Ok, now "ACCAAUUUACCGGCAGUAGUGAUGUUACUCCGAGGACCGGUACGGCCGCCACUCGCGAACGUAGGGUUUCUGACUCGAAGAGUCU"
Resp: 171

Req: Ok, now CUGGGUUGACGAAAAGUCAACAAAAGAGAAGGAGCGCACGAAAGUGCAGGUAGGUCGCUCAGUCCAGUGAUGUUGGAUCAUCCAG [#SwitchBubble 11 #K4Late]
Resp: 484

Req: Ok, now "UGACUGGACUGAAGGAGCGCUUAACUCCUAGUGAUGUUAGGAAAACGAGACAAAGUCUCGAAGCAGGUAGGUCGCAGUCUAGUCU"
Resp: 151

Req: Ok, now "GGUAGCAUGGCGGCCGCCACUAUUACUGGAUCGGAAACGAUCCAGUAUUUAUGAGUGAUGUUCAUUAGGACCGGGCCAUGCUACC"
Resp: 304

Req: Ok, now AUUUAGACGAGUGAUGUUCGUGAUAUUACAGAGGAUAUGCUUAAAAGCAGAAGGCUGUAUUUAUAUUUGUUAUGUAAUUUUAAAA [JR_ExcFMNA_Sub005]
Resp: 78

---

Please provide measured apparent KD of K4 kissing-loop reporter for the entries that follow.
- Test system: K4 kissing-loop RNA reporter;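 also: bound reporter read as fluorescence of individual clusters on recovered sequencing chips by microscopy, with normalized cluster intensities fitted with a binding model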
- experiment.description: apparent KD of K4 kissing-loop reporter; higher = weaker reporter binding
- protocol.conditions: Eterna round: R107; input ligand: theophylline 20 uM
Report the figure in nM without appending any unit label.

Req: Which value of apparent KD of K4 kissing-loop reporter has been reported for AAGAGAUAGGGAGGAUAUGCCCUAUUGAGAACCGAGUGAUGUUCGGUAGGACAAAUAGUCCACAGGGUAGAAGGCCCACAUCACA [SS FNM B Tesla 2] in the records?
Resp: 476

Req: Ok, now GCAGUGAUGUUGCACGAGUAGGCUGGAGUACGAGGACCGGUACGGCCGCCACUCGUACGGAAGUCGCUAAUUUAUGGAAUGGUGA [#06 K4 Tryptophan A Same State]
Resp: 413

Req: Ok, now UAUUAAUUGUCAGGAUAUCGUAUUCGAGUGAUGUUCGUAUAUCGACGAUAGUCGAUAUUAUCUAUACGAGAAGGGACAUUAUUUA [JR_SSFMNB_Sub006]
Resp: 341

# credit: the supplement of paper PMC9170038
